Assay: protein stability index of a GFP-peptide fusion (yeast GPS) (PSI 1-4); higher = more stable; sorted into four equal gates, so the index is relative within each strain
Details: pdr5∆
Assay Endpoint: protein stability index
Please reply with the value in numeric form only.

Known results for sequences:
Ordered Residues	Measured Result
LLDTNSLEENAMSTVTL [SKI6]	3.04
EAKDAIIELENINAKME [YIL149C/MLP2]	3.12
LIQSTEFPSITSSVILG [YOR098C/NUP1]	3.44

Which protein stability index is listed for AVDKVISGYKKFSSTSR [RPT1] ? 3.87

Which protein stability index is listed for TTGISSTGAADGGYNAQ [SMC2] ? 3.4

Which protein stability index is listed for GGESDSALILMYKGFGL [UBP6] ? 3.41

Which protein stability index is listed for VISLGPNLATFISSGTS [YJL039C/NUP192] ? 2.64

Which protein stability index is listed for MPKKRASNGRNKKGRGH [RPS26A] ? 3.43

Which protein stability index is listed for DEPDEQGNPKKRPGKLS [CYT1] ? 3.45

Which protein stability index is listed for EAASITRKSLNNAVRFS [ECM29] ? 2.88

Which protein stability index is listed for QRGKMHGLKQLRDSLAD [NUT2] ? 2.67

Which protein stability index is listed for ERVQSDENKDDELVKLL [SRP68] ? 3.42

Which protein stability index is listed for MSSVQSKILSQAPSELE [RPS7B] ? 2.72

Which protein stability index is listed for ISLSFSRPASYGYFSVG [SIR4] ? 1.82
